FYI, the data here is from patent US20220177587A1.

Can you tell me Ratio of PDL1:CD28 for the items I'm about to list?
target: huPD-L1 (Homo sapiens, UniProt Q9NZQ7); assay: Flow binding to CHO cells stably expressing PD-L1; design: huCTLA4 and huPD-L1, full-length mammalian surface expression constructs were generated; expressed in transfected cells; host or cells: CHO cells, lentiviral transduction, sorted to >98% purity; settings: Table E25; linker variants; ratio of MFI at 33.3 nM
Sequence (Q9NZQ7 19-290): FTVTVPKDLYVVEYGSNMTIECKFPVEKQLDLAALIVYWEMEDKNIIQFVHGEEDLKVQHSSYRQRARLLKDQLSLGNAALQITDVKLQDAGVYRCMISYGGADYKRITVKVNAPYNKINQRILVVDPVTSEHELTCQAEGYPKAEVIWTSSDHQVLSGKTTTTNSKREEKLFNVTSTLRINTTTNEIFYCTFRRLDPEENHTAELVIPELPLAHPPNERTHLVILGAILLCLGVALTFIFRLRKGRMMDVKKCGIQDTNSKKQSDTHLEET
Numbers only.

Below, 3 molecules whose answers are already recorded.
molecule	test_value
E35D/D46V/M47L/V68M/L85Q/E88D delta (protein) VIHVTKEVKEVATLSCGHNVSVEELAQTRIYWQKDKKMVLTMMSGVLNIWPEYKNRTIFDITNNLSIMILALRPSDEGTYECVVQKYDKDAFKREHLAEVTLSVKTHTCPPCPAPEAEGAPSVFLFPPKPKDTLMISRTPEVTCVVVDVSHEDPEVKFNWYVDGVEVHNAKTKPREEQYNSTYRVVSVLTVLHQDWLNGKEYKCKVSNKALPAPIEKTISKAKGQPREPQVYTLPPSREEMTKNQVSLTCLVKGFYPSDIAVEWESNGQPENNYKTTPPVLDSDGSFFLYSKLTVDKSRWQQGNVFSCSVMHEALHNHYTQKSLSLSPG	5
E35D/M47V/N48K/V68M/K89N delta (protein) VIHVTKEVKEVATLSCGHNVSVEELAQTRIYWQKDKKMVLTMMSGDVKIWPEYKNRTIFDITNNLSIMILALRPSDEGTYECVVLKYENDAFKREHLAEVTLSVKTHTCPPCPAPEAEGAPSVFLFPPKPKDTLMISRTPEVTCVVVDVSHEDPEVKFNWYVDGVEVHNAKTKPREEQYNSTYRVVSVLTVLHQDWLNGKEYKCKVSNKALPAPIEKTISKAKGQPREPQVYTLPPSREEMTKNQVSLTCLVKGFYPSDIAVEWESNGQPENNYKTTPPVLDSDGSFFLYSKLTVDKSRWQQGNVFSCSVMHEALHNHYTQKSLSLSPG	4
E35D/D46V/M47L/V68M/L85Q/E88D (EAAAK)3 (protein, UniProt P33681 35-288, looked up, variant E35D D46V M47L V68M L85Q E88D, (EAAAK)3 linker) T-lymphocyte activation …: VIHVTKEVKEVATLSCGHNVSVEELAQTRIYWQKDKKMVLTMMSGVLNIWPEYKNRTIFDITNNLSIMILALRPSDEGTYECVVQKYDKDAFKREHLAEVTLSVKADFPTPSISDFEIPTSNIRRIICSTSGGFPEPHLSWLENGEELNAINTTVSQDPETELYAVSSKLDFNMTTNHSFMCLIKYGHLRVNQTFNWNTTKQEHFPDNLLPSWAITLISVNGIFVICCLTYCFAPRCRERRRNERLRRESVRPV	129

QUERY: What value of Ratio of PDL1:CD28 has been recorded for this entry: E35D/M47V/N48K/V68M/K89N EAAAK (protein, UniProt P33681 35-288, looked up, variant E35D M47V N48K V68M K89N, EAAAK linker) T-lymphocyte activation …: VIHVTKEVKEVATLSCGHNVSVEELAQTRIYWQKDKKMVLTMMSGDVKIWPEYKNRTIFDITNNLSIMILALRPSDEGTYECVVLKYENDAFKREHLAEVTLSVKADFPTPSISDFEIPTSNIRRIICSTSGGFPEPHLSWLENGEELNAINTTVSQDPETELYAVSSKLDFNMTTNHSFMCLIKYGHLRVNQTFNWNTTKQEHFPDNLLPSWAITLISVNGIFVICCLTYCFAPRCRERRRNERLRRESVRPV
RESULT: 9
